Exercise: for every item that follows, state its recorded inhibition.
# EXPERIMENTAL_SYSTEM: Cathepsin B (Homo sapiens)
# PROTOCOL_SUMMARY: human cathepsin B inhibitors, primary screen, biochemical, fluorogenic substrate (AID 453);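 also: 0% = enzyme with no compound and 100% = no enzyme blank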
# DETAILS: purified cathepsin B, fluorescence, active compounds read high,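 tested at 10 µM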
Out of some 63,000 compounds screened, about 75 (0.1%) were called active. Shown is part of a subset that was picked to be rich in actives.

Cc1ccc2oc(=O)c3cnn(CC(=O)N4CCN(c5ccccn5)CC4)c3c2c1; 3.28% (inactive)
COC(=O)Nc1nc2ccc(Sc3ccccc3)cc2[nH]1; 4.96% (inactive)
CCOc1cccc(-c2nn3c(-c4ccccn4)nnc3s2)c1; 0.42% (inactive)
COc1ccccc1-c1nnc(SCC(=O)N2CC(C)CC(C)C2)o1 (stereo unspecified); -0.15% (inactive)
CN(Cc1ccccc1)C(=O)CCNC(=O)Cn1cnc2ccccc2c1=O; -3.16% (inactive)

Now, please, on to the next compound.
Tell me reported inhibition for CC1(C)C/C(=C(/C#N)C(N)=O)CCO1 , tested with Cathepsin B (Homo sapiens). 9.43% (inactive)

* * *

Exercise: for every item that follows, state its recorded inhibition.
# EXPERIMENTAL_SYSTEM: Cathepsin B (Homo sapiens) (UniProt P07858)
# PROTOCOL_SUMMARY: human cathepsin B inhibitors, primary screen, biochemical, fluorogenic substrate (AID 453);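 also: 0% = enzyme with no compound and 100% = no enzyme blank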
# DETAILS: purified cathepsin B, fluorescence, active compounds read high,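 tested at 10 µM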
Hit rate of the full screen: of about 63,000 compounds, about 75 (0.1%) were called active. This excerpt belongs to a sample that is enriched for actives.
Give bare numbers, in %.

Record excerpt, results attached:
CCN(CC)CCCNC(=O)c1cc(-c2cccc(Cl)c2)on1; 4.03
C=CCOc1ccc(/C=N/n2cncn2)cc1OC; 1.3
O=C1Nc2ccccc2C12Nc1ccccc1S2 (centres undefined); -3.59
O=C(O)CCC(=O)NCc1ccc2[nH]c3c(c2c1)CCCC3; 3.83
COc1ccc(Cc2nnnn2CC(=O)O)cc1; -2.08

Hi there! I need inhibition for each item below, if you can.
1. O=C(NCC(F)(F)F)Nc1nnc(C(F)(F)F)s1
2. C=CCOc1nc2c(c(=O)n(C)c(=O)n2C)n1Cc1ccc(Cl)cc1Cl

[2.4, 0.74]

Hi there! I need inhibition for each item below, if you can.
1. O=C(Nc1ccc2c(c1)nc1n2CCCCC1)c1cc(S(=O)(=O)N2CCOCC2)ccc1Cl
2. CCCCOC(=O)Nc1nccs1
3. COc1ncnc2c1N=C1CC(C)(C)CC(N)=C1S2
4. CCCC(=O)N1CCc2[nH]c3ccccc3c2C1
5. CCOc1cc(C(=O)Nc2ncccn2)cc(OCC)c1OCC

[-1.57, 2.38, -1.8, 0.39, -3.7]

* * *

# EXPERIMENTAL_SYSTEM: Cathepsin B (Homo sapiens)
# PROTOCOL_SUMMARY: human cathepsin B inhibitors, primary screen, biochemical, fluorogenic substrate (AID 453);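 also: 0% = enzyme with no compound and 100% = no enzyme blank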
# DETAILS: purified cathepsin B, fluorescence, active compounds read high,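 tested at 10 µM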
The campaign covered roughly 63,000 compounds. About 75 (0.1%) were called active. Only a selection was taken, and actives are over-represented in it overall.
REPORTED_METRIC: inhibition (%)
Numbers only, in %.

CCOC(=O)C1CCCN(C(=O)C2CCN(c3nnc(-n4cccc4)s3)CC2)C1 (stereo not given); 5.94
O=C(CSc1nnc2ccccn12)c1ccccc1; 8.89
CC(C)(C)Oc1ncc(Br)c(OC(C)(C)C)n1; -1.01
O=CN1CCN(C2CC(=O)N(c3ccc4c(c3)OCO4)C2=O)CC1 (stereo not given); -5.45

Now, please, on to the next compound.
Tell me reported inhibition for COCCn1c(SCC(=O)Nc2cc(Cl)ccc2OC)nc2c(c1=O)SC(C)C2 (stereo not given) , tested with Cathepsin B (Homo sapiens). -1.89
